Values compiled from patent US20210380680A1.

biological target: human Claudin 18.2 (CLDN18.2) (human, UniProt P56856-2 1-261); experiment: cell-based or functional assay
Attribute Measured: ADCC EC50, NCI-N87-CLDN18.2, FcR-TANK (nM)
Respond with the bare value in nM.

INSERT INTO measurements (binder, numeric_readout) VALUES
  ('413H9F8-H1L1 (antibody, V domains shown, humanized IgG; constant regions not specified) VH: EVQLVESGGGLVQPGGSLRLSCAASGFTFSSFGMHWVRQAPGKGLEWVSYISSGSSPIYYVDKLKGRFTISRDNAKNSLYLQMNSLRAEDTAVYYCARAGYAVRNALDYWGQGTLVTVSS VL: DIVMTQSPDSLAVSLGERATINCKSSQSLLNVGNQKNYLAWYQQKPGQPPKLLIYGASTRESGVPDRFSGSGSGTDFTLTISSLQAEDVAVYYCQNDLFYPLTFGGGTKVEIK', 0.47),
  ('413H9F8-H1L3 (antibody, V domains shown, humanized IgG; constant regions not specified) VH: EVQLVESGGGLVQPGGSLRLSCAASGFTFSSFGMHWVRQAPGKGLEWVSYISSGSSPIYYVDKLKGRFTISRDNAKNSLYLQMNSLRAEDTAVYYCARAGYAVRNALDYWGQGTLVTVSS VL: DIVMTQSPDSLAVSLGERATINCKSSQSLLNVGNQKNYLAWYQQKPGQPPKLLIYGASTRESGVPDRFIGSGSGTDFTLTISSLQAEDVAVYFCQNDLFYPLTFGGGTKVEIK', 0.37),
  ('364D1A7-H1L5 (antibody, V domains shown, humanized IgG; constant regions not specified) VH: EVQLVESGGGLVQPGGSLRLSCAASGFTFSSFGMHWVRQAPGKGLEWVSYISSGSGSIYYADTVKGRFTISRDNAKNSLYLQMNSLRAEDTAVYYCATSYYYGNALEYWGQGTTVTVSS VL: DVVLTQSPDSLAVSLGERATISCKSSQSLFNVGNQKNYLTWYQQKPGQTPTLLIYWASTRKSGVPDRFTGSGSGTDFTLTISSLQAEDVAVYYCQNVYSYPLTFGAGTKVEIK', 0.26);

[Q] Answer with the recorded ADCC EC50, NCI-N87-CLDN18.2, FcR-TANK for the binder listed here: 413H9F8-cp2 (antibody, V domains shown, humanized IgG; constant regions not specified) VH: DVQLVESGGGLVQPGGSLRLSCAASGFTFSSFGMHWVRQAPGKGLEWVAYISSGSSPIYYVDKLKGRFTISRDNAKNSLYLQMNSLRAEDTAVYYCARAGYAVRNALDYWGQGTLVTVSS VL: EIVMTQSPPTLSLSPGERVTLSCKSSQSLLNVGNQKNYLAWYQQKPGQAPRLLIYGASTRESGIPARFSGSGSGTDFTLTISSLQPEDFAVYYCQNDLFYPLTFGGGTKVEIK
[A] 0.24

[Q] # return recorded ADCC EC50, NCI-N87-CLDN18.2, FcR-TANK for entry 364D1A7-H4L5 (antibody, V domains shown, humanized IgG; constant regions not specified) VH: DVQLVESGGGLVQPGGSLRLSCAASGFTFSSFGMHWVRQAPGKGLEWVAYISSGSGSIYYADTVKGRFTLSRDNPKNTLYLQMNSLRAEDTAVYYCATSYYYGNALEYWGQGTTVTVSS VL: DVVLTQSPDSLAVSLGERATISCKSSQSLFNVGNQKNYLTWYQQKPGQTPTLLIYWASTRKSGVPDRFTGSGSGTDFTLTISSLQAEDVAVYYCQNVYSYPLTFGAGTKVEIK
[A] 0.34
